Assay: Pharmacokinetic properties in CD-1 mouse
Assay type: in vivo
Settings: both sexes, plasma, 15 mg/kg, oral, single administration, read-out: AUClast (area under the curve)

{"columns": ["smiles.record", "unit.abbreviation", "AUC(0-t)"],
 "data": [
  ["CC#CC(=O)N1CCC[C@H]1c1nc(-c2ccc(Oc3ccccc3)cc2)c2c(N)nccn12", "ng·h/mL", 1880]
]}

* * *

Known half-life of a selection of compounds
Assay: In vitro liver microsomal metabolism (mouse)
Type: in vitro ADME
Conditions: mouse liver microsomes, NADPH, 37° C.; read-out: T1/2 in liver microsomes
metric.name: half-life (min)

{"columns": ["compound", "measured.number"],
 "data": [
  ["CC#CC(=O)N1CCC[C@H]1c1nc(-c2ccc(Oc3ccccc3)cc2)c2c(N)nccn12 [Compound of formula Id]", 8.26],
  ["CC#CC(=O)N1CCC[C@H]1c1nc(-c2ccc(C(=O)Nc3ccccn3)cc2)c2c(N)nccn12 [Acalabrutinib, acalabrutinib, reference compound]", 23.3]
]}
